B1: FBF1 (parent)
chain: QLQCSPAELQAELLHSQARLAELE

# Variants of: B1
# Assay Method Text: protein stability index of a GFP-peptide fusion (GPS, HEK-293T) (PSI 1-6); higher = more stable;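 further: lentivirally expressed fusions sorted by FACS into six bins by GFP to DsRed ratio, PSI derived from sequencing read proportions per bin multiplied by bin number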
# Test Settings: c terminus: a fixed tail appended
Classes by protein stability index: bin 1 = under 3, bin 2 = from 3 up to 4, bin 3 = 4 and over

H15I; bin 1

Query: Bin this entry: H15R
Response: bin 1

Query: Bin this entry: A18K
Response: bin 1

Query: Bin this entry: Q17P
Response: bin 3
